STUDY TARGET: human MRGPRD (Homo sapiens, UniProt Q8TDS7)
Sequence (Q8TDS7 whole entry): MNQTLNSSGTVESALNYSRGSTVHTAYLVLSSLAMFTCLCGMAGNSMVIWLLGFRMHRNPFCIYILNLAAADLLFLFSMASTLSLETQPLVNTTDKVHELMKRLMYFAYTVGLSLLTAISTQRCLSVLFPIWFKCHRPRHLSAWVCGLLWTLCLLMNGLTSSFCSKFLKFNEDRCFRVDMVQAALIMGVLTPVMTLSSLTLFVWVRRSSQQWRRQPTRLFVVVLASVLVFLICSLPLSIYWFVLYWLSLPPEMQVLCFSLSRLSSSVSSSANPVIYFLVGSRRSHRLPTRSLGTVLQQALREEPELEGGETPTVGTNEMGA
PROCEDURE DETAILS: MRGPRD antagonist activity, IP-One HTRF assay in CHO cells stably expressing human MRGPRD (versus 100 μM β-Alanine agonist)
For each record, write down the corresponding IC50.

Report IC50 for each item below.
1. Cc1cc(NC(=O)c2nnn(-c3ccc(-c4ccccc4)cc3F)c2C2CC2)ccn1
2. CCn1nc(C)c(-c2ccc(-n3nnc(C(=O)Nc4ccncc4)c3C3CC3)cc2)c1C
3. Cc1nn(-c2ccccc2)c(C)c1-c1ccc(-n2nnc(C(=O)NCc3cccnc3)c2C2CC2)cc1
4. O=C(Nc1cnn(C2CC2)c1)c1nnn(-c2ccc(-c3ccccc3)cc2)c1C1CC1
5. CS(=O)(=O)c1ccc(-c2ccc(-n3nnc(C(=O)Nc4ccncc4)c3C3CC3)cc2)cc1
6. CCn1cc(CNC(=O)c2nnn(-c3ccc(-c4ccc(C#N)cc4)cc3F)c2C2CC2)cn1
7. CC(=O)c1cccc(-c2cccc(-n3nnc(C(=O)NC4(c5cccnc5)CC4)c3C3CC3)c2)c1
8. O=C(NCCc1ncn[nH]1)c1nnn(-c2ccc(-c3ccccc3)cc2)c1C1CC1

Result block:
100 to 500 nM
< 100 nM
100 to 500 nM
> 3000 nM
100 to 500 nM
1000 to 3000 nM
100 to 500 nM
> 3000 nM

---

For each record, write down the corresponding IC50.
STUDY TARGET: human MRGPRD (Homo sapiens)
PROCEDURE DETAILS: MRGPRD antagonist activity, IP-One HTRF assay in CHO cells stably expressing human MRGPRD (versus 100 μM β-Alanine agonist)
Description: Chinese Hamster Ovary (CHO) cells stably expressing human MRGPRD (Eurofins, San Diego CA) were plated in a 384-well plate at 20,000 cells per well in 12 μL of Optimem (Fisher Scientific 11-058-021). Plates were kept in the incubator at 37° C. overnight. […] Assay plates were read on either a Molecular Devices SpectraMax iD5 plate reader or a BMG ClarioStar plate reader. The HTRF ratio was calculated form the raw data and graphed using GraphPad Prism to calculate IC50 values. […]

COCC1(NC(=O)c2nnn(-c3ccc(-c4ccccc4)cc3)c2C2CC2)CCCC1 [Compound 14-83]	> 3 µM
Cc1cc(NC(=O)c2nnn(-c3ccc(-c4ccc(C#N)cc4)nc3)c2C2CC2)ccn1 [Compound 7-242]	0.5 to 1 µM
Cn1cc(C2(NC(=O)c3nnn(-c4ccc(-c5ccccc5)cc4)c3C3CC3)CC2)cn1 [Compound 14-69]	1 to 3 µM

Now turn to the next molecule.
Query block: State IC50 on human MRGPRD (Homo sapiens). Entry: Cc1ccc(-n2nnc(C(=O)Nc3ccncc3)c2C2CCCC2)cc1 [Compound 3-6]
Result block: 1 to 3 µM

---

STUDY TARGET: human MRGPRD (Homo sapiens)
PROCEDURE DETAILS: MRGPRD antagonist activity, IP-One HTRF assay in CHO cells stably expressing human MRGPRD (versus 100 μM β-Alanine agonist)
For each record, write down the corresponding IC50.

# example entries with known answers
Cc1cc(NC(=O)c2nnn(-c3ccc(-c4c(C)nn(C)c4F)cc3F)c2C2CC2)ccn1	< 0.1 µM
CCn1nc(C)c(-c2ccc(-n3nnc(C(=O)Nc4ccnc(C)c4)c3C3CC3)c(F)c2)c1C	< 0.1 µM
Cc1c[nH]nc1-c1ccc(-n2nnc(C(=O)Nc3ccncc3)c2C2CC2)cc1	0.5 to 1 µM
COc1cccc(-n2nnc(C(=O)Nc3ccncc3)c2C2CC2)c1	1 to 3 µM
Cc1cc(NC(=O)c2nnn(-c3ccc(-c4c(C)nn(CC(F)(F)F)c4C)cc3F)c2C2CC2)ccn1	< 0.1 µM

Report IC50 for each item below.
1. Cc1cscc1-c1ccc(-n2nnc(C(=O)Nc3ccncc3)c2C2CC2)cc1
2. CCn1nccc1-c1ccc(-n2nnc(C(=O)Nc3ccncc3)c2C2CC2)cc1
3. Cc1ccc(-n2nnc(C(=O)Nc3ccncc3)c2C2CC2)c(Cl)c1
4. O=C(Nc1ccncc1)c1nnn(-c2ccccc2C(F)(F)F)c1C1CC1
5. Cc1cc(C#N)ccc1-c1ccc(-n2nnc(C(=O)NC3(c4cncc(Cl)c4)CC3)c2C2CC2)cc1

Result block:
1. 1 to 3 µM
2. 0.1 to 0.5 µM
3. 1 to 3 µM
4. 1 to 3 µM
5. 0.5 to 1 µM
